Each entry below carries its recorded MIC.
Test system: Aspergillus flavus
procedureSummary: Antifungal activity against Aspergillus flavus
Assay type: functional
Kindly answer with a numeric value in µg/mL, unit omitted.

Worked cases, answers included:
1) CO/C=C(/C(=O)OC)c1cc(Cl)ccc1Cn1cc(-c2ccccc2C=O)nn1 1500
2) C#CS(=O)(=O)c1ccc(C)cc1 4

Please look at the following compound next.
// returns reported MIC for input CO/C=C(/C(=O)OC)c1cc(Cl)ccc1Cn1cc(S(=O)(=O)c2ccc(C)cc2)nn1
500

* * *

Test system: Radish
procedureSummary: Effect on growth of Raphanus sativus assessed as length of hypocotyl at 50 ug/mL by seed germination assay
Type: functional
quantity: Activity (mm)
Give the value in mm but do not write mm after it.

Please review the entries below; each comes with its answer.
compound	assayedTarget	quantity	testResult
CO/C=C(/C(=O)OC)c1cc(Cl)ccc1Cn1cc(-c2ccccc2)nn1	Radish	Activity	18.8
C#CS(=O)(=O)c1ccc(C)cc1	Radish	Activity	56.2
CO/C=C(/C(=O)OC)c1cc(Cl)ccc1Cn1cc(-c2ccccc2C=O)nn1	Radish	Activity	25
CO/C=C(/C(=O)OC)c1cc(Cl)ccc1Cn1cc(C2=CCCCC2)nn1	Radish	Activity	14

Which Activity is reported for this compound? CO/C=C(/C(=O)OC)c1ccccc1Oc1cc(Oc2ccccc2C#N)ncn1 [AZOXYSTROBIN]
2

Item CO/C=C(/C(=O)OC)c1cc(Cl)ccc1Cn1cc(S(=O)(=O)c2ccc(C)cc2)nn1 has what recorded Activity?
30.7
